These data points were gathered from ChEMBL document CHEMBL1148639.

TEST_SUMMARY: Apparent permeability in human Caco-2 cell at 25 uM
Format: ADME, cell-based
RECORDED_ENDPOINT: Papp at 25 µM (×10⁻⁶ cm/s)

a = CCCc1nn(C)c2c(=O)[nH]c(-c3cc(C(C)=O)ccc3OCC)nc12
b = CCCCOc1ncc(C(C)=O)cc1-c1nc2c(CC)n(C3CN(CC)C3)nc2c(=O)[nH]1
Compare a and b and name the one whose reported Papp at 25 µM is smaller. Indicate which entry you chose by stating its label. b

a = CCCCOc1ncc(C(C)=O)cc1-c1nc2c(CC)n(CCN3CCOCC3)nc2c(=O)[nH]1
b = CCCCOc1ncc(C(C)=O)cc1-c1nc(O)c2nn(Cc3nccn3C)c(CC)c2n1
Compare a and b and name the one whose reported Papp at 25 µM is smaller. Indicate which entry you chose by stating its label. b
(b: 5 ×10⁻⁶ cm/s, a: 37 ×10⁻⁶ cm/s)

P = CCCOc1ncc(C(C)=O)cc1-c1nc2c(CC)n(C3CN(C(C)C)C3)nc2c(=O)[nH]1
Q = CCCCOc1ncc(C(C)=O)cc1-c1nc2c(CC)n(C3CCN(CC)CC3)nc2c(=O)[nH]1
Higher Papp at 25 µM: P or Q ? Indicate which entry you chose by stating its label. Q
